FYI, the data here is from paper PMC12416549.

target.or.test.system: T1, TNFR1 (Homo sapiens, UniProt P19438)
T1 chain: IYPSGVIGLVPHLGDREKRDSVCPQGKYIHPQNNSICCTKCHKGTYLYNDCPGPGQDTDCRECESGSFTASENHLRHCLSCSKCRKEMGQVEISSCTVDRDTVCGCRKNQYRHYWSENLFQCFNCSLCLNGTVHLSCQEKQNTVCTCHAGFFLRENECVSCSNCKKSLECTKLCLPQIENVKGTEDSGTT
procedure.text: yeast display SC50
# apparent Kd (screen) values compiled below
Quick note: number first, unit second.

INSERT INTO assay_data (binder, assay_readout, observed_result) VALUES
  ('E26C (designed binder) SMEEEVEKAAKEYEKKKKEAIEKHLCKLKAKDKEAAERFLKELEEAAKEYAKDEAKTMSEEEAKRRAKKYKEKVLLSELSEEEQKEIKEAEEKLVRTILKYVEEAAK', 'apparent Kd (screen)', '0.49 nM'),
  ('E104A (designed binder) SMEEEVEKAAKEYEKKKKEAIEKHLEKLKAKDKEAAERFLKELEEAAKEYAKDEAKTMSEEEAKRRAKKYKEKVLLSELSEEEQKEIKEAEEKLVRTILKYVEAAAK', 'apparent Kd (screen)', '0.79 nM');

apparent Kd (screen) in this record for K18G (designed binder) SMEEEVEKAAKEYEKKKGEAIEKHLEKLKAKDKEAAERFLKELEEAAKEYAKDEAKTMSEEEAKRRAKKYKEKVLLSELSEEEQKEIKEAEEKLVRTILKYVEEAAK : 0.653 nM

The reported apparent Kd (screen) of the binder Y13L (designed binder) SMEEEVEKAAKELEKKKKEAIEKHLEKLKAKDKEAAERFLKELEEAAKEYAKDEAKTMSEEEAKRRAKKYKEKVLLSELSEEEQKEIKEAEEKLVRTILKYVEEAAK was 1.86 nM

The recorded apparent Kd (screen) for E49T (designed binder) SMEEEVEKAAKEYEKKKKEAIEKHLEKLKAKDKEAAERFLKELEEAAKTYAKDEAKTMSEEEAKRRAKKYKEKVLLSELSEEEQKEIKEAEEKLVRTILKYVEEAAK is 2.73 nM

Query E60A (designed binder) SMEEEVEKAAKEYEKKKKEAIEKHLEKLKAKDKEAAERFLKELEEAAKEYAKDEAKTMSAEEAKRRAKKYKEKVLLSELSEEEQKEIKEAEEKLVRTILKYVEEAAK yields apparent Kd (screen) of 0.956 nM

What the record says about K31W (designed binder) SMEEEVEKAAKEYEKKKKEAIEKHLEKLKAWDKEAAERFLKELEEAAKEYAKDEAKTMSEEEAKRRAKKYKEKVLLSELSEEEQKEIKEAEEKLVRTILKYVEEAAK : apparent Kd (screen) is 0.79 nM

// E81D (designed binder) SMEEEVEKAAKEYEKKKKEAIEKHLEKLKAKDKEAAERFLKELEEAAKEYAKDEAKTMSEEEAKRRAKKYKEKVLLSELSDEEQKEIKEAEEKLVRTILKYVEEAAK : apparent Kd (screen) value = 1.69 nM
